Cited source for all entries: patent US10941182

Biological target: T1, rat APJ receptor (rat, UniProt Q9JHG3 1-377)
T1 sequence (looked up): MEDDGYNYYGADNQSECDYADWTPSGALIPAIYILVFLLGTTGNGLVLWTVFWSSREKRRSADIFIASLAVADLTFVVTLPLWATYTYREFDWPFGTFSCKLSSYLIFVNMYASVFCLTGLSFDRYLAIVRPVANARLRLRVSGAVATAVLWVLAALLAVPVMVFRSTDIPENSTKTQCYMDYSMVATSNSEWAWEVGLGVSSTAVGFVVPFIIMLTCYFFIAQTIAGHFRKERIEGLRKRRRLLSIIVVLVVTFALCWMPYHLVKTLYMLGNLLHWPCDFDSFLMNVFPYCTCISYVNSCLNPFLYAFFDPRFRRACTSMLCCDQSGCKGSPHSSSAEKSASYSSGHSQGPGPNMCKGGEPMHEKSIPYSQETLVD
Experiment: cell-based or functional assay
Non-standard residues stand in square brackets, D forms with d. Primed or numbered codes have the meaning given here. No end group written: not given here. dBip = N[C@H](Cc1ccc(-c2ccccc2)cc1)C(=O)O; Oic = O=C(O)[C@@H]1C[C@@H]2CCCC[C@@H]2N1; Phe(4-Cl) = N[C@@H](Cc1ccc(Cl)cc1)C(=O)O; Phe(4-I) = N[C@@H](Cc1ccc(I)cc1)C(=O)O; hArg = N=C(N)NCCCC[C@H](N)C(=O)O; Cha = N[C@@H](CC1CCCCC1)C(=O)O; NMeL = CN[C@@H](CC(C)C)C(=O)O; αMeP = C[C@@]1(C(=O)O)CCCN1; Nle = CCCC[C@H](N)C(=O)O; Orn = NCCC[C@H](N)C(=O)O; Pip′ = not defined here
property: EC50 Rat APJ Receptor (nM)
Write it as a number; the unit nM goes unstated.

q: // returns reported EC50 Rat APJ Receptor for input [Orn]F[hArg][hArg]Q[hArg][Pip′][hArg][Cha]SHKG[Oic][Nle]P[Phe(4-Cl)] [apelin polypeptide SEQ ID NO: 695]
a: 0.384

q: For Ac-[hArg][hArg][dQ][hArg]P[dR][NMeL]SHKG[Oic][Phe(4-I)]P[dBip]-OH [apelin polypeptide SEQ ID NO: 19] then?
a: 0.757

q: Do the same for Ac-[Orn]F[hArg][hArg]Q[hArg][αMeP][hArg][Cha]SHKG[Oic][Nle]P[Phe(4-Cl)]-OH [apelin polypeptide SEQ ID NO: 33] please
a: 0.318
